# TARGET_OR_SYSTEM: PRKCD (human)
# ASSAY_INFO: radiometric filter-binding kinase assay, Kinase HotSpot
# CONDITION_LABEL: compound 0.5 µM; ATP 10 µM
METRIC_NAME: residual activity (%)
State the answer as a number, implicitly in %.

**Q:** Look at this molecule and give its reported residual activity. Cc1cccc(-c2nc(C(C)(C)C)[nH]c2-c2ccc3c(c2)OCO3)n1
**A:** 104

**Q:** Look at this molecule and give its reported residual activity. CN(C)c1ccc(/C=C2\C(=O)Nc3ccccc32)cc1
**A:** 95.6

**Q:** Look at this molecule and give its reported residual activity. CO[C@@H]1[C@H](N(C)C(=O)c2ccccc2)C[C@H]2O[C@]1(C)n1c3ccccc3c3c4c(c5c6ccccc6n2c5c31)C(=O)NC4
**A:** 10.9

New cases:
**Q:** Look at this molecule and give its reported residual activity. COc1ccc(C(=O)Nc2sc3c(c2C(N)=O)CCCC3)cc1OC
**A:** 81.8

**Q:** Look at this molecule and give its reported residual activity. CC(C)(C)c1cc(C=C(C#N)C#N)cc(Br)c1O
**A:** 83

**Q:** Look at this molecule and give its reported residual activity. N#Cc1c[nH]c2c[nH]/c(=N\Cc3cccnc3)cc2/c1=N\c1ccc(F)c(Cl)c1
**A:** 95.2

**Q:** Look at this molecule and give its reported residual activity. O=C(c1cc2cc(O)ccc2[nH]1)c1cc2cc(O)ccc2[nH]1
**A:** 89.7

**Q:** Look at this molecule and give its reported residual activity. COc1cc(Nc2c(C#N)cnc3cc(OCCCN4CCN(C)CC4)c(OC)cc23)c(Cl)cc1Cl
**A:** 40.3

**Q:** Look at this molecule and give its reported residual activity. CCCCc1c(-c2ccc(OC)cc2)[nH]c2nccnc12
**A:** 92.8

**Q:** Look at this molecule and give its reported residual activity. COc1ccc2c(c1)/C(=C/c1cnc[nH]1)C(O)=N2
**A:** 95.5
